experiment: NOD1 signaling inhibitors, primary screen, cell-based, luminescence, uHTS (AID 1578); settings: NOD1-driven NF-kB luciferase reporter cells, at 4 µM, active compounds read high;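 note: HEK-293T reporter cells stimulated with the NOD1 agonist gamma-tri-DAP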
Out of some 290,000 compounds screened, about 3,000 (1%) were called active. The full list was thinned out, with actives kept by preference.
inhibition by entry:
Metric: inhibition

O=S(=O)(Nc1ccc(N=Nc2ccc(O)c3ccccc23)cc1)c1ccccc1 :: 13% (inactive)
Oc1[nH]c2ccccc2c1C=Nc1ccc2c(c1)OCO2 :: 14.2% (inactive)
Oc1ccc(N=Nc2ccc3c(c2)OCCO3)c(O)c1 :: -2.2% (inactive)
COc1ccc(/C=N/Nc2ncccc2[N+](=O)[O-])c(OC)c1 :: -42.4% (inactive)
Oc1c(N=Nc2ccc(F)cc2)ccc2ccccc12 :: -69.9% (inactive)
NS(=O)(=O)c1ccc(N=Nc2ccc(O)c3ncccc23)cc1 :: -6.1% (inactive)
CC(=O)N1CCc2cc(S(=O)(=O)Nc3ccc(C)cc3)ccc21 :: 0% (inactive)
Oc1ccc(N=Nc2ccc3c(c2)OCCO3)c2ncccc12 :: 106% (active)
Cc1ccc(N=Nc2ccc3ccccc3c2O)cc1 :: 19% (inactive)
Cc1ccc(NC(=O)C(=O)NCc2ccccn2)cc1 :: -47.6% (inactive)
COc1cccc(/C=N/Nc2ncccc2[N+](=O)[O-])c1OC :: 39.6% (active)
CSCC(=O)N1CCC(Oc2cccc(C(=O)NCc3ccccn3)c2)CC1 :: -24% (inactive)
